- assay.details: Stock solutions made near maximum solubility
- details: 37 °C, pH 5, aqueous buffer
quantity.name: solubility

Requested read-out: solubility. Entry: "O.O=C[C@H](O)[C@@H](O)[C@H](O)[C@H](O)C(=O)[O-].[Na+]"
~2000 mM
